# assay.explanation: TOX21_p53_BLA_p4_viability: Viability Assessment in the Tox21 HCT-116 p53 Agonism Beta-lactamase Assay, Phase 4 (AID 2283597);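 also: hits lower the luminescence signal meaning cytotoxicity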
Records with an inconclusive call do not appear. The source made the active and inactive calls. The calls were made as follows: active = hit-call score of the fitted dose curve at least 0.9, where 1 is the maximum; inconclusive = response in the unintended direction; inactive = score below 0.9.
Outcome codes: true (1) = active, false (0) = inactive

{"molecule": "CN(C)c1ccc(N=Nc2ccccc2C(=O)O)cc1", "group.label": "true (1)"}
{"molecule": "NC(=O)NNC(N)=O", "group.label": "false (0)"}
{"molecule": "CCCCCCCCCCC=CC#N", "group.label": "false (0)"}
{"molecule": "C=C1[C@H]2CC[C@@H]3[C@H]2C(C)(C)CCC[C@]13C", "group.label": "false (0)"}
{"molecule": "Cn1c([N+](=O)[O-])cnc1COC(N)=O", "group.label": "false (0)"}
{"molecule": "CC1=CC[C@H](C(C)C)C=C1", "group.label": "false (0)"}
{"molecule": "Cc1oncc1C(=O)Nc1ccc(C(F)(F)F)cc1", "group.label": "false (0)"}
{"molecule": "O=C1OC(=O)c2cc(Oc3ccc4c(c3)C(=O)OC4=O)ccc21", "group.label": "false (0)"}
{"molecule": "O=C1c2cccc(O)c2C(=O)c2c(O)cc(CO)cc21", "group.label": "false (0)"}
{"molecule": "O=C1c2ccccc2C(=O)C1c1nc2ccccc2c(Br)c1O", "group.label": "false (0)"}
{"molecule": "C=C1C2CCC(C2)C1(C)C (centres undefined)", "group.label": "false (0)"}
{"molecule": "CC(=O)c1ccc[nH]1", "group.label": "false (0)"}
{"molecule": "O=C1CC2CC1C1CCCC21 (centres undefined)", "group.label": "false (0)"}
{"molecule": "COCC(C)N (centres undefined)", "group.label": "false (0)"}
{"molecule": "NNC(=O)c1cccc(C(=O)NN)c1", "group.label": "false (0)"}
{"molecule": "O=S(=O)(O)c1ccc2cc(O)c(S(=O)(=O)O)cc2c1", "group.label": "false (0)"}
{"molecule": "CCN(CCC#N)c1ccc(N=Nc2c(Cl)cc([N+](=O)[O-])cc2Cl)cc1", "group.label": "false (0)"}
{"molecule": "CCC(Cc1ccccc1)(C(=O)c1ccc(N2CCOCC2)cc1)N(C)C (centres undefined)", "group.label": "false (0)"}
{"molecule": "C[C@]12C=CC(=O)C=C1CC[C@@H]1[C@@H]2[C@@H](O)C[C@@]2(C)[C@H]1CC[C@]2(O)C(=O)CO", "group.label": "false (0)"}
